- method.description: Inhibition of JAK2 V617F mutant in BAF3 cells assessed as reduction in cell growth measured after 72 hrs by MTT assay
metric: pIC50
When answering, recall that pIC50 equals minus log10 of the concentration in mol/L, and write that number alone.

Provide one value: measured pIC50 of C1=C/COCc2cc(ccc2OCCN2CCCC2)Nc2nccc(n2)-c2cccc(c2)COC/1 [ONX-0803]
5.97
